Molecular target: Human MPO (Homo sapiens (Human))
Sequence (P05164 49-745): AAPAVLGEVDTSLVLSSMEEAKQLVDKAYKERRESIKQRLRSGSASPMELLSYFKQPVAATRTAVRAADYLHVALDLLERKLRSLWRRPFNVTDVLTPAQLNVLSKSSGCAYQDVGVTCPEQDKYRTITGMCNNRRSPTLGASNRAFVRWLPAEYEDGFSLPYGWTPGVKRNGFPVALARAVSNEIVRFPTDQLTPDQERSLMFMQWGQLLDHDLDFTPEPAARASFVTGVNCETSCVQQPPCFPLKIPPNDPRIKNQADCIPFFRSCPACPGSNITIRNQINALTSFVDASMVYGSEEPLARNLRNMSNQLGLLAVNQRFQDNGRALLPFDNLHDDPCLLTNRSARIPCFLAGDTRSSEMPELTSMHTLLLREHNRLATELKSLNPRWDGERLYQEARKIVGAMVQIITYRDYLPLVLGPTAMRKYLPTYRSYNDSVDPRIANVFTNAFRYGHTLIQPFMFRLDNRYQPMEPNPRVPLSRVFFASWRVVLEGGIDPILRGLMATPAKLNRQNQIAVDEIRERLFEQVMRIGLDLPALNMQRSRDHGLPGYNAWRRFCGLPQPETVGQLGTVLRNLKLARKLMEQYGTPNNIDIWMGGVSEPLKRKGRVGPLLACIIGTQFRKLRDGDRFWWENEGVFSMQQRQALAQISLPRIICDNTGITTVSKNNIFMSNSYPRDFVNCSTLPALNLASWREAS
Assay: Myeloperoxidase (MPO) inhibition IC50 screening
Assay type: biochemical
Conditions: Chemical Library 3rd Screening; read-out: IC50 (uM) (Human MPO)
parameter_measured: IC50 (µM)

{"molecule": "CC(C)OCCn1c(=S)[nH]c(=O)c2[nH]ccc21 [AZD3241]", "numeric_result": 0.021}
